molecular target: hMAO-A (Homo sapiens); construct: purchased Sigma Aldrich; host or cells: insect cells (BTI-TN-5B1-4), recombinant baculovirus; experiment: hMAO-A inhibitory activity assay (kynuramine); format: biochemical; details: read-out: % inhibition at 10 µM hMAO-A, kynuramine substrate
Sequence (P21397 whole entry): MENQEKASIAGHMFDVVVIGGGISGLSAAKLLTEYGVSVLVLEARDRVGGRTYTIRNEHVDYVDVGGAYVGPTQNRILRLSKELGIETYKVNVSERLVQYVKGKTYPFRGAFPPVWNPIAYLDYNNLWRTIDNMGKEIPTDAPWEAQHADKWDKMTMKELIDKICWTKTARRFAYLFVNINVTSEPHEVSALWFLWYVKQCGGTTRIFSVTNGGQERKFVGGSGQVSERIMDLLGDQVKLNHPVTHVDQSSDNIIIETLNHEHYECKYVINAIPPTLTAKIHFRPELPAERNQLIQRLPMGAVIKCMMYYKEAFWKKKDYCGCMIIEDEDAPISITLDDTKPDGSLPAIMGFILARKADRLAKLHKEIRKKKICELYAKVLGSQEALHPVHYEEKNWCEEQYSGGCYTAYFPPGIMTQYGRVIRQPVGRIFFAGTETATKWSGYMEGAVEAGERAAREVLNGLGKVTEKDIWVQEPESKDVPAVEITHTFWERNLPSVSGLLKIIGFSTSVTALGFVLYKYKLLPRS
Rule: inhibition at 10 µM under 4% gives False, otherwise True.

Use the examples below as a reference point.
COc1cc([N+](=O)[O-])c(OC)cc1CCNCc1ccccc1OC [25N-NBOMe] : True
COc1cc(CCN)cc(OC)c1OC.Cl [Mescaline] : False
COc1cc(CCNCc2ccccc2OC)c(OC)cc1Br [25B-NBOMe] : True
COc1cc(CCN)c(OC)cc1Br [2C-B, 4-Bromo-2,5-dimethoxy-β-phenethylamine] : True

Let us examine a further case.
Hello, I need to know if COc1cc([N+](=O)[O-])c(OC)cc1CCN [2C-N, 2,5-dimethoxy-4-nitrophenethylamine] has measured inhibition at 10 µM not below 4%. Thanks!
True

---

The reader will find reported chromatographic logD values listed item by item below.
test: Chromatographic Hydrophobicity Index (CHI) by HPLC, CHILogD7.4; conditions: pH 7.4

Consider the following illustrative entries.
COc1cc([N+](=O)[O-])c(OC)cc1CCN : 0.37
COc1ccccc1CNCCc1cc(OC)c(OC)c(OC)c1 : 1.34
COc1cc([N+](=O)[O-])c(OC)cc1CCNCc1ccccc1OC [25N-NBOMe] : 1.96
COc1cc(CCN)c(OC)cc1Br : 0.7

GET /values?readout=chromatographic logD&item= COc1cc(CCNCc2ccccc2OC)c(OC)cc1Br [25B-NBOMe]
2.32

---

The reader will find reported EC50 values listed item by item below.
tested on: HepG2 cells; assay: Neutral red uptake cytotoxicity assay, HepG2; type: cell-based; conditions: Homo sapiens, HepG2, 24 h, cell death curves 0–2000 µM, read-out: EC50 (half-maximum-effect concentrations)
Report only the number, with the unit µM understood.

GET /values?readout=EC50&item= COc1cc(CCNCc2ccccc2OC)c(OC)cc1Br [25B-NBOMe]
34.7

GET /values?readout=EC50&item= COc1cc([N+](=O)[O-])c(OC)cc1CCN
960

GET /values?readout=EC50&item= COc1ccccc1CNCCc1cc(OC)c(OC)c(OC)c1
476

GET /values?readout=EC50&item= COc1cc(CCN)c(OC)cc1Br
257

GET /values?readout=EC50&item= COc1cc([N+](=O)[O-])c(OC)cc1CCNCc1ccccc1OC [25N-NBOMe]
115

---

test system: HepG2 cells; test: Resazurin reduction cytotoxicity assay, HepG2; type: cell-based; details: Homo sapiens, HepG2, 24 h, cell death curves 0–2000 µM, read-out: EC50 (half-maximum-effect concentrations)
The reader will find reported log10 EC50 values listed item by item below.
// do not treat as linear: log10 of EC50, unit µM

Consider the following illustrative entries.
COc1cc([N+](=O)[O-])c(OC)cc1CCNCc1ccccc1OC [25N-NBOMe] : 2.00
COc1cc([N+](=O)[O-])c(OC)cc1CCN : 2.92
COc1cc(CCN)c(OC)cc1Br : 2.31
COc1ccccc1CNCCc1cc(OC)c(OC)c(OC)c1 : 2.63

Now let's try a different one.
GET /values?readout=log10 EC50&item= COc1cc(CCNCc2ccccc2OC)c(OC)cc1Br [25B-NBOMe]
1.52
